Record form. Attribute: IC50. Fill in for each entry.
molecular target: hSULT1A2 (Homo sapiens); construct: 6-histidine tag (N); TEV site (N); made in house; host or cells: Escherichia coli BL21 (DE3), pET29a(+); assay: Fluorescence-based microplate inhibition assay, hSULT1A2-catalyzed HN-241 4-O-sulfation; format: biochemical; details: hSULT1A2-catalyzed HN-241 4-O-sulfation
One number for each entry, in µM.

For each of the molecules below, state IC50.
1. O=C1c2cccc(O)c2C(=O)c2c(O)cc(CO)cc21
2. O=c1cc(-c2ccc(Oc3c(O)cc4oc(-c5ccc(O)cc5)cc(=O)c4c3O)cc2)oc2cc(O)cc(O)c12
3. COc1ccc(-c2cc(=O)c3c(O)c(OC)c(O)cc3o2)cc1

a:
1. 0.118
2. 0.11
3. 0.0872

---

target: hSULT1A1 (Homo sapiens, UniProt P50225); construct: 6-histidine tag (N); TEV site (N); made in house; host or cells: Escherichia coli BL21 (DE3), pET29a(+); experiment: Fluorescence-based microplate inhibition assay, hSULT1A1-catalyzed HN-241 4-O-sulfation; type: biochemical; settings: test compound 1 μM, HN-241 1 μM, 15 min;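 also: reaction started with 200 µM PAPS at 37 °C, fluorescence read continuously (Ex 350 nm, Em 450 nm), activity expressed relative to DMSO-only control without inhibitor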
Sequence (P50225 whole entry): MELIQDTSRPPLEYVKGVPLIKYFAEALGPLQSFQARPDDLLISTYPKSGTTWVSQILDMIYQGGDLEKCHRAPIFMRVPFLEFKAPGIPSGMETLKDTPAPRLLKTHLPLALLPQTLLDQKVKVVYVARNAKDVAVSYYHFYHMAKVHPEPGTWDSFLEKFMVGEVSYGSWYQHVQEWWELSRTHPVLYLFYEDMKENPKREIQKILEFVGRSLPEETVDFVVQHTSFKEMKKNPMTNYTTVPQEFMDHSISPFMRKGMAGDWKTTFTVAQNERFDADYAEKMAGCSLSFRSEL
Record form. Attribute: Residue activity (%) hSULT1A1. Fill in for each entry.
I'd appreciate it if you wrote the number followed by its unit.

For each of the compounds below, state Residue activity (%) hSULT1A1.
1. CC(C)=CCC[C@@](C)(O)[C@H]1CC[C@]2(C)[C@@H]1[C@H](O)C[C@@H]1[C@@]3(C)CC[C@H](O)C(C)(C)[C@@H]3[C@@H](O[C@@H]3O[C@H](CO)[C@@H](O)[C@H](O)[C@H]3O[C@@H]3OC[C@@H](O)[C@H](O)[C@H]3O)C[C@]12C [20(R)-Notoginsenoside R2]
2. O=C(/C=C/C=C/c1ccccc1)CCc1ccccc1 [Alnustone]
3. COc1ccc(-c2oc3c(CC=C(C)C)c(O[C@@H]4O[C@H](CO)[C@@H](O)[C@H](O)[C@H]4O)cc(O)c3c(=O)c2O[C@@H]2O[C@@H](C)[C@H](O)[C@@H](O)[C@H]2O[C@@H]2O[C@@H](C)[C@H](O)[C@@H](O)[C@H]2O)cc1 [Epimedin C]
4. COc1ccc(-c2oc3c(CC=C(C)C)c(O[C@@H]4O[C@H](CO)[C@@H](O)[C@H](O)[C@H]4O)cc(O)c3c(=O)c2O)cc1 [Icariside I]

a:
110.54%
74.39%
108.62%
91.81%

---

target: hSULT1A3 (Homo sapiens); construct: 6-histidine tag (N); TEV site (N); made in house; host or cells: Escherichia coli BL21 (DE3), pET29a(+); assay: Fluorescence-based microplate inhibition assay, hSULT1A3-catalyzed HN-241 4-O-sulfation; type: biochemical; details: test compound 10 μM, HN-241 10 μM, 15 min; read-out: Residue activity (%) hSULT1A3
Quantity Measured: activity at 10 µM (%)
Answers are plain numbers, in %.

q: Look up activity at 10 µM with hSULT1A3 (Homo sapiens) for this compound: CC(C)[C@]12O[C@H]1[C@@H]1O[C@]13[C@]1(O[C@H]1C[C@H]1C4=C(CC[C@@]13C)C(=O)OC4)[C@@H]2O [Triptolide]
a: 110

For each of the compounds below, state activity at 10 µM.
1. O=c1c(O)c(-c2ccc(O)c(O)c2)oc2cc(O)cc(O)c12 [Quercetin, reference compound]
2. CC1(C)CC[C@]2(C(=O)O)CC[C@]3(C)C(=CC[C@@H]4[C@@]5(C)CC[C@H](O)C(C)(C)[C@@H]5CC[C@]43C)[C@@H]2C1

a:
[39.9, 114]

---

molecular target: hSULT1A2 (Homo sapiens, UniProt P50226); construct: 6-histidine tag (N); TEV site (N); made in house; host or cells: Escherichia coli BL21 (DE3), pET29a(+); assay: Fluorescence-based microplate inhibition assay, hSULT1A2-catalyzed HN-241 4-O-sulfation; format: biochemical; settings: test compound 10 μM, HN-241 5 μM, 15 min
Sequence (P50226 whole entry): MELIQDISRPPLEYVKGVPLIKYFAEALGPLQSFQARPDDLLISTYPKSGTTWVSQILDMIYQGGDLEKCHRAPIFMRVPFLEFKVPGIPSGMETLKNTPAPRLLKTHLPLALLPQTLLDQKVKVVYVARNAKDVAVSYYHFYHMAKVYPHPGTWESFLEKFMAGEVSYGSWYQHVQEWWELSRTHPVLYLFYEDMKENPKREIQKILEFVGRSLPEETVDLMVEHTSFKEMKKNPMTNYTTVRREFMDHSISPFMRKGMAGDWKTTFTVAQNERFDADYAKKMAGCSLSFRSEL
Record form. Attribute: Residue activity (%) hSULT1A2. Fill in for each entry.
Answers are plain numbers, in %.

q: Which measured Residue activity (%) hSULT1A2 value corresponds to O=C(/C=C/C=C/c1ccccc1)CCc1ccccc1 [Alnustone] ?
a: 80.60

q: Which measured Residue activity (%) hSULT1A2 value corresponds to O=C1C=CC(=O)c2cc3ccccc3cc21 [1,4-Anthracenedione] ?
a: 1.06

q: Which measured Residue activity (%) hSULT1A2 value corresponds to C[C@H]1C(=O)O[C@@H]2CCN3CC=C(COC(=O)[C@](C)(O)[C@]1(C)O)[C@H]23 [Crotaline] ?
a: 97.30

q: Which measured Residue activity (%) hSULT1A2 value corresponds to COc1ccc(/C=C/C(=O)c2ccccc2)cc1 [4-Methoxychalcone] ?
a: 75.95

q: Which measured Residue activity (%) hSULT1A2 value corresponds to O=C1CCC[C@@H]2[C@H]3CCC[N@+]4([O-])CCC[C@@H](CN12)[C@@H]34 [Ammothamnine] ?
a: 96.56

Consider the additional compound presented here.
q: Which measured Residue activity (%) hSULT1A2 value corresponds to O=C1C[C@@H](c2ccc(O)cc2)Oc2cc(O)ccc21 [Liquiritigenin] ?
a: 25.92

---

Record form. Attribute: activity at 10 µM. Fill in for each entry.
target: hSULT1A3 (Homo sapiens); construct: 6-histidine tag (N); TEV site (N); made in house; host or cells: Escherichia coli BL21 (DE3), pET29a(+); test: Fluorescence-based microplate inhibition assay, hSULT1A3-catalyzed HN-241 4-O-sulfation; type: biochemical; conditions: test compound 10 μM, HN-241 10 μM, 15 min; read-out: Residue activity (%) hSULT1A3
One number for each entry, in %.

Recorded activity at 10 µM, per entry:
q: Which measured activity at 10 µM value corresponds to `COc1c(/C=C/C(=O)c2ccc(O)c(CC=C(C)C)c2)ccc(O)c1O` ?
a: 30.9

q: Which measured activity at 10 µM value corresponds to `COc1ccc(-c2cc(=O)c3c(O)cc(O)cc3o2)cc1` ?
a: 58.1

q: Which measured activity at 10 µM value corresponds to `C[C@@H]1O[C@@H](OC[C@H]2O[C@@H](Oc3cc(O)c4c(c3)O[C@H](c3ccc(O)c(O)c3)CC4=O)[C@H](O)[C@@H](O)[C@@H]2O)[C@H](O)[C@H](O)[C@H]1O` ?
a: 104

q: Which measured activity at 10 µM value corresponds to `COc1ccc(-c2cc(=O)c3c(O)c(OC)c(O)cc3o2)cc1` ?
a: 1.34

***
q: Which measured activity at 10 µM value corresponds to C=C(C)[C@@H]1CC[C@]2(C(=O)O)CC[C@]3(C)[C@H](CC[C@@H]4[C@@]5(C)CC[C@@H](O)C(C)(C)[C@@H]5CC[C@]43C)[C@@H]12 [Epibetulinic acid] ?
a: 121

---

target: hSULT1A1 (Homo sapiens); construct: 6-histidine tag (N); TEV site (N); made in house; host or cells: Escherichia coli BL21 (DE3), pET29a(+); experiment: Fluorescence-based microplate inhibition assay, hSULT1A1-catalyzed HN-241 4-O-sulfation; type: biochemical; conditions: test compound 1 μM, HN-241 1 μM, 15 min; read-out: Residue activity (%) hSULT1A1
Record form. Attribute: activity at 1 µM. Fill in for each entry.
I'd appreciate it if you wrote the number followed by its unit.

Recorded activity at 1 µM, per entry:
q: Which measured activity at 1 µM value corresponds to `COc1ccc(-c2oc3c(CC=C(C)C)c(O[C@@H]4O[C@H](CO)[C@@H](O)[C@H](O)[C@H]4O)cc(O)c3c(=O)c2O[C@@H]2O[C@@H](C)[C@H](O)[C@@H](O)[C@H]2O)cc1` ?
a: 85.5%

q: Which measured activity at 1 µM value corresponds to `COc1ccc(-c2cc(=O)c3c(O)c(OC)c(O)cc3o2)cc1` ?
a: 1.12%

q: Which measured activity at 1 µM value corresponds to `O=c1cc(-c2ccc(O)cc2)oc2c([C@@H]3O[C@H](CO)[C@@H](O)[C@H](O)[C@H]3O)c(O)cc(O)c12` ?
a: 102%

Consider the additional molecule presented here.
q: Which measured activity at 1 µM value corresponds to `O=c1c(O)c(-c2ccc(O)cc2O)oc2cc(O)cc(O)c12` ?
a: 50.7%

---

target: hSULT1A3 (Homo sapiens, UniProt P0DMM9); construct: 6-histidine tag (N); TEV site (N); made in house; host or cells: Escherichia coli BL21 (DE3), pET29a(+); test: Fluorescence-based microplate inhibition assay, hSULT1A3-catalyzed HN-241 4-O-sulfation; type: biochemical; conditions: test compound 10 μM, HN-241 10 μM, 15 min
Sequence (P0DMM9 whole entry): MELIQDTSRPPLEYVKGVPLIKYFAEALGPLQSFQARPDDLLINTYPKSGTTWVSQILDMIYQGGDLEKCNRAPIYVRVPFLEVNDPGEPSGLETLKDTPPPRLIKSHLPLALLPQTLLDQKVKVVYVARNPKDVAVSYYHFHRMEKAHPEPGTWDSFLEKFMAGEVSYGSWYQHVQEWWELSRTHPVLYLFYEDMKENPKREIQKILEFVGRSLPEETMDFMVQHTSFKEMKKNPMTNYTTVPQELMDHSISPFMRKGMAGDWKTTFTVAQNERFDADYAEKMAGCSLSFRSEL
Quantity Measured: Residue activity (%) hSULT1A3
One number for each entry, in %.

Recorded Residue activity (%) hSULT1A3, per entry:
q: Look up Residue activity (%) hSULT1A3 with hSULT1A3 (Homo sapiens, UniProt P0DMM9) for this compound: COc1ccc(-c2cc(=O)c3c(O)cc(O)c(-c4cc(-c5cc(=O)c6c(O)cc(OC)cc6o5)ccc4OC)c3o2)cc1 [Sciadopitysin]
a: 62.24

q: Look up Residue activity (%) hSULT1A3 with hSULT1A3 (Homo sapiens, UniProt P0DMM9) for this compound: O=C(/C=C/c1ccc(O[C@@H]2O[C@H](CO)[C@@H](O)[C@H](O)[C@H]2O)cc1)c1ccc(O)cc1O [Neoisoliquiritigenin]
a: 108.00

q: Look up Residue activity (%) hSULT1A3 with hSULT1A3 (Homo sapiens, UniProt P0DMM9) for this compound: O=C(/C=C/C=C/c1ccccc1)CCc1ccccc1 [Alnustone]
a: 111.42

For each of the compounds below, state Residue activity (%) hSULT1A3.
1. COc1cc(O)c2c(c1)C(=O)c1cc(C)cc(O)c1C2=O [Emodin-3-methyl ether]
2. O=C(/C=C/c1ccccc1)c1ccccc1 [trans-Chalcone]
3. CC(C)=CCC[C@@](C)(O)[C@H]1CC[C@]2(C)[C@@H]1[C@H](O)C[C@@H]1[C@@]3(C)CC[C@H](O)C(C)(C)[C@@H]3[C@@H](O[C@@H]3O[C@H](CO)[C@@H](O)[C@H](O)[C@H]3O[C@@H]3OC[C@@H](O)[C@H](O)[C@H]3O)C[C@]12C [20(R)-Notoginsenoside R2]

a:
103.18
116.88
100.25

For each of the compounds below, state Residue activity (%) hSULT1A3.
1. Cc1c(O)c(C)c2c(c1O)C(=O)[C@H](Cc1ccc3c(c1)OCO3)CO2 [Methylophiopogonanone A]
2. COc1cc2c(c(OC)c1OC)-c1c(cc(OC)c(OC)c1OC)C[C@](C)(O)[C@@H](C)C2 [Schisandrin]

a:
79.90
123.25
